This section presents compounds with their documented inhibition values.
- test.target: Solute carrier family 2, facilitated glucose transporter member 1 (Homo sapiens)
- protocol.notes: ST_JUDE_LEISH: Cytotoxicity at 2uM final concentration against transgenic Leishmania Mexicana promastigotes LmGLUT1 that are glucose transport deficient and complemented with the human glucose transporter GLUT1. Activity is measured by DNA content using SYBR green in vitro
- Format: functional
# value in %; strip the unit string

# count of solved cases: 3
- structure.notation: "CC(CO)(CO)NCc1cc2ccc3ccsc3c2c2ccccc12"
  unit.of.measurement: "%"
  inhibition: 77.1
- structure.notation: "CC(=O)N[C@H](C(=O)Nc1cccc(-c2ccc(-c3nc4cccc(C)c4[nH]3)s2)c1)C(C)C"
  unit.of.measurement: "%"
  inhibition: 3.65
- structure.notation: "Cc1ccc(C(=O)NCC2CCN(c3ccc(C(F)(F)F)cc3NC(=O)c3ccco3)CC2)cn1"
  unit.of.measurement: "%"
  inhibition: 2.76

What value of inhibition has been recorded for this entry: CC(C)CCN1CCCN(Cc2ccc(C(=O)Nc3ccc(F)c(F)c3)cc2)CC1
4.12

What value of inhibition has been recorded for this entry: CN(C)Cc1cccc(-c2ccc3ccnc(N)c3c2)c1
1.78

What value of inhibition has been recorded for this entry: O=S(=O)(NCCN1CCCC1)c1ccc(-c2cccc(CNCCc3cccs3)c2)cc1
5.24

* * *

- test.target: Hexose transporter 1 (Plasmodium falciparum) (UniProt O97467)
- protocol.notes: ST_JUDE_LEISH: Cytotoxicity at 2uM final concentration against transgenic Leishmania Mexicana promastigotes LmPfHT that are glucose transport deficient and complemented with the Plasmodium falciparum hexose transporter. Activity is measured by DNA content using SYBR green in vitro
- Format: functional
recorded.endpoint: inhibition (%)
# value in %; strip the unit string

# count of solved cases: 6
- compound: "CC(C)C[C@H](NC(=O)c1ccc(OCCN2CCOCC2)cc1)C(=O)N[C@H](/C=N/N1CCNC1=O)CCc1ccccc1"
  unit.of.measurement: "%"
  inhibition: 6.05
- compound: "CC(C)(C)c1ccc(CN2CCC(CNC(=O)c3cc(-c4ccccc4C(F)(F)F)cs3)C2)cc1 (stereo not given)"
  unit.of.measurement: "%"
  inhibition: 3.76
- compound: "CCn1nc(C(=O)NC2CCOc3ccccc32)c2ccccc2c1=O (stereo not given)"
  unit.of.measurement: "%"
  inhibition: -0.92
- compound: "Cc1cnc2ccc(NS(=O)(=O)c3sc4ccc(Cl)cc4c3C)cc2c1N1CCNCC1"
  unit.of.measurement: "%"
  inhibition: 4.04
- compound: "O=C(Nc1ccsc1)Nc1cccc(-c2cccc(-c3nc4ccccc4[nH]3)c2)c1"
  unit.of.measurement: "%"
  inhibition: 10.8
- compound: "COc1cc(NC(=O)/C=C/c2cc3ccccc3n2C)ccc1OCCN(C(C)C)C(C)C"
  unit.of.measurement: "%"
  inhibition: 4.39

What value of inhibition has been recorded for this entry: O=C(Nc1ccc(-c2nc3ccccc3[nH]2)cc1)c1ccc(S(=O)(=O)N2CCc3ccccc32)cc1
0.13

What value of inhibition has been recorded for this entry: CN(C)CCNc1ncnc2c1[nH]c1ccc(Br)cc12
4.67

What value of inhibition has been recorded for this entry: c1ccc2c(Nc3ccc(OCCOCCOc4ccc(Nc5c6ccccc6nc6ccccc56)cc4)cc3)c3ccccc3nc2c1
-1.87

What value of inhibition has been recorded for this entry: N#CCCN1CCN(Cc2cccc(-c3ccc(-c4nc5ccccc5[nH]4)s3)c2)CC1
-2.37

Hey, just so you know, these numbers are from ChEMBL document CHEMBL3433997.
